- System: MS2 coat protein
- Experimental Details: apparent KD of MS2 coat protein; designed switch direction (-1 OFF switch, 1 ON switch): -1; higher = weaker reporter binding
- Condition Set: input ligand: FMN 200 uM
Recorded Endpoint: apparent KD of MS2 coat protein (µM)
All answers are understood in µM, so give the number only.

INSERT INTO measurements (seq_text, recorded_endpoint, reported_value) VALUES
  ('UUUAGUUCAGGAUAUGUAGAUUUUAACAUGAGGAUCACCCAUGUCGAUCCUGAAUUAACUACAGAAGGGAACAUUU [Mod of Brourd 4 - Jieux - Exclusion 5] (Eterna round: R97, puzzle: Exclusion 5)', 'apparent KD of MS2 coat protein', 0.064);

Suppose we examine the sequence CACCGUUAGUGAGGAUAUAUUACAUGAGGAUCACCCAUGUAAUAAAUGAGAAUUUCGGAUGUAUGAUAGAAGGCACAAAUCGGC [Ostricism 52 - Jieux - Exclusion NG 2] (Eterna round: R96, puzzle: Exclusion NG 2) ; what apparent KD of MS2 coat protein value has been reported?
0.0112

Suppose we examine the sequence AACAGUACAGGAUAUACAUGAGGAUCACCCAUGUGAGAUUUAAGUGGCGUACCACAAAGUAGAAGGGUACUGGA [JL Maslow Revisted mod 5] (Eterna round: R96, puzzle: Exclusion 3) ; what apparent KD of MS2 coat protein value has been reported?
0.23

Suppose we examine the sequence GGAGGACGAGCAGGAUAUUUUUACAUGAGGAUCACCCAUGUGUAAUCAGGGUAAUCCUCCACCGAAAAGAAGGGUUCGGAAGAA [Mat - Exclusion NG 2 - Mod of JL - D84] (Eterna round: R96, puzzle: Exclusion NG 2) ; what apparent KD of MS2 coat protein value has been reported?
0.0181

* * *

- Test system: K4 kissing-loop RNA reporter;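 also: bound reporter read as fluorescence of individual clusters on recovered sequencing chips by microscopy, with normalized cluster intensities fitted with a binding model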
- Experimental Details: apparent KD of K4 kissing-loop reporter; higher = weaker reporter binding
- Condition Set: Eterna round: R107; input ligand: tryptophan 2.4 mM
Recorded Endpoint: apparent KD of K4 kissing-loop reporter (nM)
All answers are understood in nM, so give the number only.

Some solved cases for reference:
INSERT INTO measurements (seq_text, reported_value) VALUES
  ('AAUUUGUAUUUAUUCUUUAAAUGUUCAGAAGGAGCGUGAAUUAUCACAGGUAGGUCGCUGAGCUAGUGAUGUUAGCUAUACACUA [#01 K4 Arginine A Exclusion]', 91),
  ('AGUGAAGUUAGUGAUGUGUGAGUUUGGGAAGGAGCGCCGAGGAAGGCAGGUAGGUCGCCCAGUGAUGUUGGUGUAAGGAUGAGAG [whbob_Ex_Arginine_A_2t123]', 303);

Suppose we examine the sequence AAUAGGGAGUGAUGUUCCCUCACUUAUGAUACCAGUGCCAUCGGACACCCUUGGCAGCAUACGGGCAGUGAUGUUGUUCUUGGAA [Exclusion Theophylline A GF 25] ; what apparent KD of K4 kissing-loop reporter value has been reported?
119

* * *

- Tested on: MS2 coat protein
- Experimental Details: apparent KD of MS2 coat protein; designed switch direction (-1 OFF switch, 1 ON switch): -1; higher = weaker reporter binding
- Condition Set: input ligand: microRNA oligo, concentration not stated
Listed here: items and their measured apparent KD of MS2 coat protein.
All answers are understood in nM, so give the number only.

Some solved cases for reference:
INSERT INTO measurements (seq_text, reported_value) VALUES
  ('ACAUGAGGAUCACCCAUGUCCGUCUGGUCUGUCUCGGCUGUCGAGGAUAUAGCUCGGUAUCCGCGCUAGAAGGCGGGAGUCGGU [Aenatbe mod 93] (Eterna round: R96, puzzle: Exclusion NG 3)', 66.7),
  ('GUUGUUUAUGUAGGAUAUGCCUGGCGUGCCUUUGCAGAAGGACAUGAGGAUCACCCAUGUAACAUGAGGCUCACCCAUGUCGCC [salish99_ExNG1_r04_108] (Eterna round: R96, puzzle: Exclusion NG 1)', 72.6),
  ('AUAAUUAAUGCAGGAUAUCAGCACGAUUAGUGCUGAGAAGGGCACAUGAGGAUCACCCAUGUGAUCAAUUAAUAUUAAUAUUAU [ENG1/11-D1] (Eterna round: R96, puzzle: Exclusion NG 1)', 53),
  ('UAGCAUUGCCAAAGGUAGUGCAUUACAUGAGGAUCACCCAUGUAGGAUAUGGUAGGCAAAGCUUACCAGAAGGACAUGAUAAUU [Mat - Exclusion NG 3 - Mod of JL - D16] (Eterna round: R96, puzzle: Exclusion NG 3)', 36.5),
  ('AGAGUGCUGCGAGGAUAUACAUGAGGAUCACCCAUGUAAACCUGUGAGGCAAAGCCUCACAGGAUGUAGAAGGCGCAGUACUCA [Mat - Exclusion NG 2 - Mod of JL - D40] (Eterna round: R96, puzzle: Exclusion NG 2)', 8.82),
  ('CACGAAUAGUGAGGAUAUGUGCGACAAAGUUGCACAGAAGGCACAUGAGGAUCACCCAUGUAAGCUAGGUCGAAAGACCUAGCG [Omei Exc(NG)1 A] (Eterna round: R96, puzzle: Exclusion NG 1)', 15.3),
  ('GCAGCAUAUGUAGGAUAUCUGCACGUUUAGUGCAGAGAAGGACAUGAGGAUCACCCAUGUAAUUAAGAUCAAUUAUUAAGCUGC [ENG1/4-A2] (Eterna round: R96, puzzle: Exclusion NG 1)', 17.2),
  ('AGAGUGCUGCGAGGAUAUACAUGAGGAUCACCCAUGUAAACGUGUGAGGCAAAGCCUCACACGAUGUAGAAGGCGCAGUACUCA [Mat - Exclusion NG 2 - Mod of JL - D37] (Eterna round: R96, puzzle: Exclusion NG 2)', 11.7);

Suppose we examine the sequence AUGUUACUCUGAGGAUAUUGUUUAUUCUUCUCACAUGAGGAUCACCCAUGUUUCCAUGUUAACCGCAAGAAGGCAGUAUUGAUU [JR_ExcNG2_Sub030] (Eterna round: R96, puzzle: Exclusion NG 2) ; what apparent KD of MS2 coat protein value has been reported?
49.1

Suppose we examine the sequence AGAUAGUGCAGAGGAUAUCGUAAUAGAAAGAAUCGAGAAGGCUGACAUGAGGAUCACCCAUGUGAUGUCUUGAGACUACAUGGU [Prohibition 34 - Jieux - Exclusion NG 1] (Eterna round: R96, puzzle: Exclusion NG 1) ; what apparent KD of MS2 coat protein value has been reported?
62.8

Suppose we examine the sequence AUCGUGCAGCUUUGCUGUACGAGUACAUGAGGAUCACCCAUGUAGGAUAUGGUACGCAAAGCGUGCUAGAAGGAUAUGAGAUUA [Mat - Exclusion NG 3 - Mod of JL - D96] (Eterna round: R96, puzzle: Exclusion NG 3) ; what apparent KD of MS2 coat protein value has been reported?
21.5

Suppose we examine the sequence GUGUUUUAUGUAGGAUAUGCAUACUGUUAGUAUGCAGAAGGACAUGAGGAUCACCCAUGUAUAUUAUUAUUAUAUAUCAUACAU [MOD2 of Hoglahoo's Title] (Eterna round: R96, puzzle: Exclusion NG 1) ; what apparent KD of MS2 coat protein value has been reported?
16

Suppose we examine the sequence CCGGCAUGGUGCGGUAGUUGUACAACAUGAGGAUCACCCAUGUAGGAUAUGCGCGUGGUCACGCCGCAGAAGGACAACGUAUGG [Random, 25% A] (Eterna round: R96, puzzle: Exclusion NG 3) ; what apparent KD of MS2 coat protein value has been reported?
89.4

Suppose we examine the sequence AUUAAAGACCGAGGAUAUCGAGGAAAUACCCUGCGAGAAGGCGGGUACUCGGACGAUUCGACAUGAGGAUCACCCAUGUGCACA [Atrivece] (Eterna round: R96, puzzle: Exclusion NG 1) ; what apparent KD of MS2 coat protein value has been reported?
24.5

Suppose we examine the sequence ACAUGAGGAUCACCCAUGUCCGGUUGGUCUGUUCCGGCUGUCGAGGAUAUAGUCCGGUGUUCGCGCUAGAAGGUGAGGGCUGGA [Aenatbe mod 46] (Eterna round: R96, puzzle: Exclusion NG 3) ; what apparent KD of MS2 coat protein value has been reported?
259

Suppose we examine the sequence ACAUGAGGAUCACCCAUGUGACCACAAUGGCUGAUGUAACAACAGGAUAUUCGUGAAUAUCUAACGAAGAAGGGUUAUGACUGG [Deportation 63 - Jieux - Exclusion NG 3] (Eterna round: R96, puzzle: Exclusion NG 3) ; what apparent KD of MS2 coat protein value has been reported?
51.4

Suppose we examine the sequence UUCGUGCAGCUUUGCUGUACGCGUACAUGAGGAUCACCCAUGUAGGAUAUGGUAGGCUUUGCUUACUAGAAGGAUAGUGUGAUC [JL EXNG3 1.30] (Eterna round: R96, puzzle: Exclusion NG 3) ; what apparent KD of MS2 coat protein value has been reported?
123
